Kindly state melting point for each of the entries shown.

Prompt: Need melting point of `CC(=O)Nc1ccc2c(c1)C(=O)N(CCCl)CO2` , thanks.
Completion: 133 to 135 °C

Prompt: Same read-out for `NC(=O)Cc1cc(Oc2ccc3c(ccn3C(=O)Nc3ccc(CN4CCCC4)c(C(F)(F)F)c3)c2)ncn1` ?
Completion: 123 to 124 °C

Others:
Prompt: Need melting point of CCCCOP(=O)(CCCCC1(C(=O)NCCC)c2ccccc2-c2cccnc21)OCCCC (stereo not drawn) , thanks.
Completion: 131 to 133 °C

====

Kindly state melting point for each of the entries shown.

Prompt: Need melting point of `CCC(C)(C)c1ccc(OCCCNC(=O)c2cc(N=C=S)c3ccccc3c2O)c(C(C)(C)CC)c1` , thanks.
Completion: 91 to 94 °C

Prompt: Same read-out for N#CCc1ccc(-c2ccc(C(CC3CCOCC3)c3ccc(S(=O)(=O)C4CC4)cc3)[nH]2)nc1 (centres undefined) ?
Completion: 139 to 141 °C

Prompt: Same read-out for CCCCC(C)C(O)C=Cc1ccc(OCc2ccccc2)c(OCc2ccccc2)c1 (centres undefined) ?
Completion: 77 to 78 °C

Now for a further molecule.
Prompt: Need melting point of `CCOC(=O)C1CCN(c2ncc(NS(=O)(=O)c3ccccc3Br)c(NCc3ccc4c(c3)OCO4)n2)CC1` , thanks.
Completion: 160 to 161 °C

Values from a melting point compilation (Tetko et al.; mined from patent text by program, amines drawn as free bases though some values may be those of a salt)
